target: tau (Homo sapiens); assay: MCE Phenols Library screening, tau biosensor cell seeding assay (AvZ); format: cell-based; settings: puncta, replicate 2
parameter_measured: raw data 2
Answer field: number only, no words.

compound COc1cc(C)c2c(=O)cc(C[C@@H](C)O)oc2c1[C@@H]1O[C@H](CO)[C@@H](O)[C@H](O)[C@H]1OC(=O)/C=C/c1ccc(O)cc1 , raw data 2 observed: 2759.19

The reported raw data 2 of the compound CC(=O)c1c(O)c(C)c(O)c(Cc2c(O)c3c(c(C(=O)/C=C/c4ccccc4)c2O)OC(C)(C)C=C3)c1O was 24336.4

raw data 2 recorded for this compound, Cc1cc(=O)oc2cc(O)c(O)cc12 , is 12529

raw data 2 in this record for COc1cc(O)cc(OC)c1 : 11736.1

====

molecular target: tau (Homo sapiens, UniProt P10636); experiment: MCE Phenols Library screening, tau biosensor cell seeding assay (AvZ); format: cell-based; conditions: Z score, replicate 2
Sequence (P10636 623-695 limits assumed): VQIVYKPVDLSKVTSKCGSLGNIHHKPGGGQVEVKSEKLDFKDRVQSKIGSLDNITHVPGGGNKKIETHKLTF
Binary classification by Z Repl 2, with 0.2 as an inclusive lower bound for met; all other cases are not met.

In plain terms: is recorded Z Repl 2 at least 0.2 for CC(=O)N[C@@H](Cc1ccc(O)cc1)C(=O)O ?
not met

State whether the measured Z Repl 2 reaches 0.2, counting equality as reaching it, for CC(=O)c1c(O)c(C)c(O)c(Cc2c(O)c3c(c(C(=O)/C=C/c4ccccc4)c2O)OC(C)(C)C=C3)c1O
met

# check: Z Repl 2 of C/C=C/c1ccc(OC(C)=O)c(OC)c1 [Isoeugenol acetate] is greater than or equal to 0.2
met

In plain terms: is recorded Z Repl 2 at least 0.2 for O=C(O)c1cc(O)c(O)c(O)c1 ?
not met

Answer whether Z Repl 2 of O=C1C[C@@H](c2ccc(O[C@@H]3O[C@H](CO)[C@@H](O)[C@H](O)[C@H]3O)cc2)Oc2cc(O)ccc21 is greater than or equal to 0.2.
not met

Is Z Repl 2 for COc1ccc(CCC(=O)c2ccc(O)cc2)c(OC)c1 at or above 0.2?
met

I'd appreciate it if you could say whether COc1ccc(O)c(C(=O)O)c1 has Z Repl 2 at least equal to 0.2.
met

Entry O=C(O)c1cc(O)c2c(c1)[C@H]([C@H]1c3cccc(O)c3C(=O)c3c(O)cc(C(=O)O)cc31)c1cccc(O)c1C2=O : is its Z Repl 2 no less than 0.2?
not met

Confirm if Z Repl 2 reported for the molecule CCCOC(=O)c1cc(O)c(O)c(O)c1 [Propyl gallate] is 0.2 or above.
not met

====

molecular target: tau (Homo sapiens); assay: MCE Phenols Library screening, tau biosensor cell seeding assay (AvZ); type: cell-based; conditions: average of raw data 1 and 2
Quick rule for you: av puncta at 20000 or higher means y, lower means n.

Textbook exercise: given the entry C=C(C)[C@H](CC=C(C)C)Cc1c(O)cc(O)c2c1O[C@H](c1ccccc1O)CC2=O [Kushenol A] , state whether its av puncta is greater than or equal to 20000.
y

Form field: av puncta at least 20000? Entry: COc1cc(CNC(=O)CCCCCCCC(C)C)ccc1O [Homodihydrocapsaicin I]
n

Given Cl.NCC(O)c1ccc(O)c(O)c1 (racemic) [DL-Norepinephrine (hydrochloride)] , state whether its av puncta is at least 20000.
y

====

target: tau (Homo sapiens, UniProt P10636); assay: MCE Phenols Library screening, tau biosensor cell seeding assay (AvZ); type: cell-based; details: Z score, replicate 1
Hi there, I'd appreciate the recorded Z repl 1 for every entry that follows.
Please give the numeric answer without any surrounding text.

Briefly, Z repl 1 measured for Oc1ccc2c(c1)OC[C@]1(O)Cc3cc(O)c(O)cc3[C@H]21 : -0.564

compound COc1cc(-c2cc(=O)c3c(O)cc(O)cc3o2)ccc1O , Z repl 1 observed: 0.623

Entry COc1ccc(-c2coc3cc(O[C@@H]4O[C@H](CO)[C@@H](O)[C@H](O)[C@H]4O)ccc3c2=O)cc1O [Calycosin-7-O-?-D-glucoside] ; Z repl 1 = 0.722

According to the records, this compound COc1cc(-c2cc(=O)c3c(O)c(OC)c(O)cc3o2)cc(O)c1OC displays Z repl 1 of 0.062

Recorded Z repl 1 (compound CC(C)=CCc1c2c(c(O)c3c1O[C@]14C(=C[C@@H]5C[C@H]1C(C)(C)O[C@@]4(C/C=C(/C)C(=O)O)C5=O)C3=O)C=CC(C)(C)O2 ): -0.656

The recorded Z repl 1 for N[C@@H](Cc1ccc(O)c([N+](=O)[O-])c1)C(=O)O is 0.936

So, CCCCCCCCCCCCCCCc1cccc(O)c1C(=O)O ? Its Z repl 1 was 0.086

Z repl 1 recorded for this compound, O=C(/C=C/c1ccc(O)c(O)c1)OCCc1ccccc1 , is -0.979

Quick note, Z repl 1 for O=c1cc(-c2ccc(O)cc2)oc2cc(O)c(O)c(O)c12 landed at -0.619

====

Please go through the items and note down their raw data 2.
molecular target: UniProtKB P10636; assay: MCE Phenols Library screening, tau biosensor cell seeding assay (AvZ); assay type: cell-based; conditions: puncta, replicate 2
Would you mind answering with just the numeric figure?

With UniProtKB P10636 as the test system, COc1cc(/C=C/C(=O)O[C@H]2[C@H](O)C[C@](O)(C(=O)O)C[C@H]2O)ccc1O [4-Feruloylquinic acid] showed raw data 2 of 5869.87

Form: item COc1cc2c(cc1O)CCN1Cc3c(ccc(OC)c3OC)CC21 (stereo not shown) [Corypalmine] ; test system UniProtKB P10636; raw data 2: 7171.93

raw data 2 value, target or system UniProtKB P10636, for COc1c(CC=C(C)C)c(O)cc2oc(=O)c(-c3ccc(O)cc3O)cc12 [Glycycoumarin] : 21531.6

Record COc1cc(/C=C/COC(=O)/C=C/c2ccc(O)c(OC)c2)ccc1O [Coniferyl ferulate] has UniProtKB P10636 raw data 2 equal to 8130.42

====

Please provide measured AvZ (average z score of seeding, SDs from the mean level of seeding) for the entries that follow.
molecular target: tau (Homo sapiens); test: MCE Phenols Library screening, tau biosensor cell seeding assay (AvZ); type: cell-based; conditions: 10 μM phenol in cell cultures, AD brain homogenate preincubated 16 hours, two biological replicates; positive = catalyzes seeding, negative = inhibits
// print number alone

Recorded AvZ (average z score of seeding, SDs from the mean level of seeding) for CC(C)=CCc1c(O)cc2oc3cc(O)c(O)c(CCC(C)(C)O)c3c(=O)c2c1O on tau (Homo sapiens) was 3.115

Entry CCc1ccc(O)cc1O , tau (Homo sapiens) data, AvZ (average z score of seeding, SDs from the mean level of seeding) value: -1.119

Bench note, tau (Homo sapiens): entry Oc1ccc2[nH]ccc2c1 [5-Hydroxyindole] , its AvZ (average z score of seeding, SDs from the mean level of seeding) = -0.616

// AvZ (average z score of seeding, SDs from the mean level of seeding) (tau (Homo sapiens)) for COc1cc(CCO)ccc1O = -0.068

Let me check: O=C(/C=C/c1ccc(O)c(O)c1)O[C@@H](C(=O)O)[C@@H](O)C(=O)O , system tau (Homo sapiens), measured AvZ (average z score of seeding, SDs from the mean level of seeding) is -0.464

# lookup: CCCCCCCCC[C@H](O)CC(=O)CCc1ccc(O)c(OC)c1 on tau (Homo sapiens), AvZ (average z score of seeding, SDs from the mean level of seeding) = -0.619

Form: item O=C(O)C(O)Cc1ccc(O)cc1 (stereo not shown) [Hydroxyphenyllactic acid] ; test system tau (Homo sapiens); AvZ (average z score of seeding, SDs from the mean level of seeding): 0.039

Item COc1cc(C(=O)O)cc(O)c1O was tested on tau (Homo sapiens); the reported AvZ (average z score of seeding, SDs from the mean level of seeding) is -0.786

Summary line: COc1cc(O)c(C(C)=O)c(OC)c1 , tau (Homo sapiens), reported AvZ (average z score of seeding, SDs from the mean level of seeding) = 0.65

// assay tau (Homo sapiens), entry COc1ccccc1O , AvZ (average z score of seeding, SDs from the mean level of seeding) value = -0.653

====

molecular target: tau (Homo sapiens); experiment: MCE Phenols Library screening, tau biosensor cell seeding assay (AvZ); assay type: cell-based; conditions: puncta, replicate 2
Please go through the items and note down their raw data 2.
// no unit, no text: just the number

// CC(=O)c1cc(O)ccc1O [2,5-Dihydroxyacetophenone] : raw data 2 value = 5682.84

The compound listed as CCCCCCC/C=C/C(=O)CCc1ccc(O)c(OC)c1 [[8]-Shogaol] shows raw data 2 equal to 4200.38

Data point: O=C(CCCCCCCCc1ccc(O)c(O)c1)c1c(O)cccc1O ; raw data 2 = 14781.1

GET /value?item= COc1ccccc1O &field=raw data 2 returns 6546.75

Measured raw data 2, COc1cc2c(cc1O)CC[n+]1cc3c4c(ccc3cc1-2)OCO4 : 10541.3

====

target: tau (Homo sapiens, UniProt P10636); experiment: MCE Phenols Library screening, tau biosensor cell seeding assay (AvZ); format: cell-based; conditions: raw puncta, replicate 1
Please respond with reported raw data 1 for every item in the list.

Value of raw data 1 reported for the compound OCC(O)c1ccc(O)c(O)c1 (centres unmarked) [4-(1,2-Dihydroxyethyl)benzene-1,2-diol] is 21044.7

Lab book: raw data 1 of C/C=C/c1ccc(OC(C)=O)c(OC)c1 [Isoeugenol acetate] noted as 16893.4

Value of raw data 1 reported for the compound O=C(O)C=Cc1ccc(O)cc1 [p-Coumaric acid] is 17659.3

The recorded raw data 1 for entry O=c1ccoc2cc(O)ccc12 [7-Hydroxy-4H-chromen-4-one] equals 26174.7

For this compound ( COC(=O)/C=C/c1ccc(O)c(O)c1 [Methyl caffeate] ), measured raw data 1 is 21362.3

raw data 1 reported for this compound COc1cc(/C=C/C(=O)OCC2OC(OC3(CO)OC(CO)C(O)C3OC(=O)/C=C/c3cc(OC)c(O)c(OC)c3)C(O)C(O)C2O)cc(OC)c1O (centres unmarked) [(E)-3',6-Disinapoylsucrose] : 29041

# raw data 1 of Cc1cc(=O)c2c(O)cc(O)cc2o1 [Noreugenin] = 21994.8

Per the record, Oc1cc(O)cc(-c2cc3ccc(O)cc3o2)c1 [Moracin M] has raw data 1 of 27063.9

Input Cc1cc(O)c(C)c2c1O[C@](C)(CCC[C@H](C)CCC[C@H](C)CCCC(C)C)CC2 [?-Tocopherol] . Output raw data 1: 27026

Please fill in: raw data 1 reported for COc1cc2ccc(=O)oc2c(O[C@@H]2O[C@H](CO)[C@@H](O)[C@H](O)[C@H]2O)c1O [Fraxin] = 28547.2

Sample O=C(O)c1ccc(O)c(O)c1O [2,3,4-Trihydroxybenzoic acid] ; raw data 1 observed: 22324.8

Measured raw data 1, COc1ccc(-c2oc3c(CC=C(C)C)c(O)cc(O)c3c(=O)c2O[C@@H]2O[C@@H](C)[C@H](O)[C@@H](O)[C@H]2O[C@@H]2O[C@H](CO)[C@@H](O)[C@H](O)[C@H]2O)cc1 [Sagittatoside A] : 21894.6

# raw data 1 of COc1cc(CO)ccc1O [Vanillyl alcohol] = 28727.3

So, OC[C@]1(O)COc2cc(O)ccc2-c2cc(O)c(O)cc2C1 [Protosappanin B] ? Its raw data 1 was 26082.6

Value of measured raw data 1 for the entry OCc1ccccc1O [Salicyl alcohol] : 22445.8

Per the record, COc1cc(/C=C/C(=O)OC(C)C)ccc1O [Isopropyl ferulate] has raw data 1 of 28366.5

The reported raw data 1 of the compound O=c1cc(-c2ccc(O)cc2)oc2c([C@@H]3O[C@H](CO)[C@@H](O)[C@H](O)[C@H]3O)c(O)c([C@@H]3OC[C@@H](O)[C@H](O)[C@H]3O)c(O)c12 [Vicenin-1] was 26610.5
